# Tested on: HCT-116 colon
# Procedure text: NCI tumour cell line growth inhibition, 48 h
Parameter TGI: see the listing below.

Compound	System name	TGI
O=S(=O)(NCCCNc1nccc(-c2c(-c3ccc(F)cc3)nc3sccn23)n1)c1ccc2ccccc2c1	HCT-116 colon	> 100 µM
CC1(C)[C@H]2CC[C@@]13C(=O)N1C(=O)O[C@@H]([C@H]1Cl)C(Cl)(COCc1ccccc1)C(=O)OCCO[C@H]3C2 (stereo partly specified)	HCT-116 colon	> 100 µM
CCOC(=O)C(NC(=O)c1nc[nH]c1[N+](=O)[O-])C(C)C (stereo unspecified)	HCT-116 colon	> 100 µM
O=[N+]([O-])c1ccc2c(c1)C1=NN(c3ccccc3)C(c3ccccc3Br)C1CCC2 (stereo unspecified)	HCT-116 colon	> 50 µM
Nc1nn2c(=O)c3ccccc3nc2s1	HCT-116 colon	> 100 µM
CO[C@@H]1O[C@H](C(=O)c2ccccc2)[C@H]2OC(C)(C)O[C@@H]12	HCT-116 colon	> 100 µM
COc1ccc(C2c3cc4c(cc3OC(N3CCOCC3)C2C)OCO4)c(OC)c1OC (stereo unspecified)	HCT-116 colon	22.3 µM
O=C(Nc1noc(-c2ccccc2)n1)c1ccccc1CNc1noc(-c2ccccc2)n1	HCT-116 colon	> 100 µM
c1c2c(cc(-n3nnc4c3CCCCCC4)c1-n1nnc3c1CCCCCC3)CCCCCC2	HCT-116 colon	21.6 µM
Cc1c2c(OCC3CCCCO3)nn(C)c(=O)c2c(C)n1-c1ccccc1 (stereo unspecified)	HCT-116 colon	31.6 µM
COc1cc(NCCCCCCCNC(C)C)c2nccc(C)c2c1	HCT-116 colon	19.9 µM
Cc1c(C(=O)O)oc2ccc([N+](=O)[O-])cc12	HCT-116 colon	> 100 µM
O=C1NCN(c2ccccc2)C12CCN(CCCN1CCN(CCOC(c3ccc(F)cc3)c3ccc(F)cc3)CC1)CC2	HCT-116 colon	3.32 µM
COc1ccc(COCC[C@H](C)OC2OC(CO[Si](C)(C)C(C)(C)C)C(OC(=O)CCCN=[N+]=[N-])C(OC(=O)CCCN=[N+]=[N-])C2OC(=O)CCCN=[N+]=[N-])cc1 (stereo partly specified)	HCT-116 colon	> 100 µM
COC1=C(C)C(=O)c2c(c(COC(N)=O)c3n2CC(OC(C)=O)C3OC(C)=O)C1=O (stereo unspecified)	HCT-116 colon	0.129 µM
COc1ccc(NC(=S)NC(=O)c2ccc3c(c2)Sc2ccccc2O3)c([N+](=O)[O-])c1	HCT-116 colon	> 100 µM
Cc1ccc(C2=CC(=O)/C(=C\C(=O)c3ccc(Cl)cc3)O2)cc1	HCT-116 colon	27.8 µM
Cc1ccc(NC(=O)c2cc(S(=O)(=O)N3C(=O)NC(=O)NS3(=O)=O)c(S)cc2Cl)cc1	HCT-116 colon	> 100 µM
N#CNC(N)=Nc1ccc(Cl)cc1	HCT-116 colon	> 100 µM
O=C(c1ccncc1)C1C(=O)c2ccccc2C1C1(O)c2ccccc2CC1C(O)c1ccncc1 (stereo unspecified)	HCT-116 colon	> 100 µM
CC(=O)OC1CCC2C3CCc4c(C)ccc(OS(=O)(=O)c5ccccc5)c4C3CCC12C (stereo unspecified)	HCT-116 colon	48.3 µM
CC(=O)c1ccc2c(c1)CC1(C2)Cc2ccccc2C1=O (stereo unspecified)	HCT-116 colon	> 100 µM
O=C(N[C@@H](C[Se][Se]C[C@H](NC(=O)c1ccc(Br)cc1F)C(=O)O)C(=O)O)c1ccc(Br)cc1F	HCT-116 colon	> 100 µM
COC(=O)C1(C(=O)OC)CC(=O)c2cc3c(cc2-c2c(cc(OC)c(OC)c2OC)C1)OCO3	HCT-116 colon	> 211 µM
N/N=C1\C(=O)N(CCc2ccccc2)C(=O)C1C(=O)NCCc1ccccc1 (stereo unspecified)	HCT-116 colon	> 100 µM
O=c1[nH]nc(Cc2ccccc2)n1/N=C/c1ccncc1	HCT-116 colon	> 100 µM
C=C1c2nc3ccccc3n2C=C(c2ccc(Cl)cc2)N1c1ccc(OC)cc1	HCT-116 colon	21.6 µM
Oc1ccccc1-c1nn(CNc2ccccc2Cl)c(=S)o1	HCT-116 colon	> 100 µM
CC(=O)O[C@H]1CCc2c(cc(N)c3c2C(=O)C[C@]2(C)C([C@H](C)CCCC(C)C)CCC32C)C1(C)C (stereo partly specified)	HCT-116 colon	> 100 µM
COc1cc(NC(C)=O)ccc1C(=O)NN1C(=O)/C(=C/c2ccco2)N=C1c1ccccc1	HCT-116 colon	> 50 µM
CC(=O)OC1C(COC(=O)c2ccccc2)OC(Nc2ncc(-c3ccc(Br)cc3)s2)C(OC(=O)c2ccccc2)C1OC(=O)c1ccccc1 (stereo unspecified)	HCT-116 colon	> 100 µM
C=Cc1ccccc1C1(O)C=CC(OC)(OC)C=C1	HCT-116 colon	11.7 µM
CCOC(=O)C1CCC(=O)N1C(=O)c1ccccc1 (stereo unspecified)	HCT-116 colon	> 100 µM
CC(=O)c1cnc2oc3ccc(O)cc3c2c1-c1ccccc1	HCT-116 colon	> 100 µM
O=c1oc2ccc(I)cc2c(=O)n1-c1ccc(Cl)cc1F	HCT-116 colon	3.86 µM
C[n+]1c(-c2ccc(/C=C/C=N\NC(=O)c3ccc(C(=O)N/N=C\C=C\c4ccc(-c5cn6ccccc6[n+]5C)cc4)cc3)cc2)cn2ccccc21	HCT-116 colon	> 100 µM
Cn1cc(C2=C(c3cn(C4CCN(Cc5ccccn5)CC4)c4ccccc34)C(=O)NC2=O)c2ccccc21	HCT-116 colon	> 100 µM
O=C1c2ccccc2NC(=S)[C@@H]2CCCN12	HCT-116 colon	> 100 µM
O=c1cc(-c2cc(O)c(O)c(-c3c(O)cc4oc(-c5ccc(O)c(O)c5)cc(=O)c4c3O)c2)oc2cc(O)cc(O)c12	HCT-116 colon	> 25 µM
CCOC(=O)C1SC(=Nc2ccc(Cl)cc2)N=C1C (stereo unspecified)	HCT-116 colon	30.2 µM
OC(c1cc2ccc(C(F)(F)F)cc2c2cc(C(F)(F)F)ccc12)C1CCCCN1 (stereo unspecified)	HCT-116 colon	2.8 µM
